biological target: PD-L1 (Homo sapiens); construct: gene CD274; purified recombinant monomeric human PD-L1His (produced in plants); with PD-1 (PD-1Fc chimera); assay: competitive ELISA of PD-1Fc binding to immobilized PD-L1
Sequence (Q9NZQ7 19-238 limits assumed): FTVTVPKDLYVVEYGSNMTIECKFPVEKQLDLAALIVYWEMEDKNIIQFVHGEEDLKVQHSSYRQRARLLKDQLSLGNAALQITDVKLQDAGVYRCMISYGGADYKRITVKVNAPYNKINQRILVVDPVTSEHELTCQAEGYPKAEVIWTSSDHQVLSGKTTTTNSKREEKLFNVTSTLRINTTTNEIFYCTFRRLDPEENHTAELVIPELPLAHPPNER
Sequence (Q15116 25-288 partner): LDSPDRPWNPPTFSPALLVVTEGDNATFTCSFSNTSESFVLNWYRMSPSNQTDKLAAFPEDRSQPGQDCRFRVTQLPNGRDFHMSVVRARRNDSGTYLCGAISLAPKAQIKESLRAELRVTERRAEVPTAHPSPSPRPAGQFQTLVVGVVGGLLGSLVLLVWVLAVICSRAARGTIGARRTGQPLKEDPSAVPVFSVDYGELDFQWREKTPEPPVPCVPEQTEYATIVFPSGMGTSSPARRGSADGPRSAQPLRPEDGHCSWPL
assay endpoint: IC50

Endpoint output: IC50 of Cc1c(C(=O)Nc2ccc(N3C[C@@H](C)O[C@@H](C)C3)nc2)cccc1-c1ccc(OC(F)(F)F)cc1 . Value? 481 µM
